tested on: Escherichia coli TOP10; experiment: shrunken log2 fold change of peptide-encoding DNA abundance (4.5 h post-induction vs induction); higher = less antimicrobial activity (less host growth inhibition); details: time post-induction: 4.5 h; library: site-saturation at positions 5, 18, 19, 20;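 further: peptides expressed intracellularly from a pBAD plasmid library in pooled LB shake-flask culture, induced with 0.3% L-arabinose, DNA abundance read by NGS, three biological replicates, DESeq2 with apeglm shrinkage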
shrunken log2 fold change values by entry
Write the number on its own, no unit after it.

The following sequences have reported results that may help.
* RRIRMRPPRLPRPRPRPHESPRP | 0.432
* RRIRKRPPRLPRPRPRPCGAPRP | 0.45
* RRIRMRPPRLPRPRPRPYLFPRP | -0.0192

// recorded shrunken log2 fold change for RRIRCRPPRLPRPRPRPRIHPRP : -0.226

Value of shrunken log2 fold change reported for the sequence RRIRRRPPRLPRPRPRPWISPRP is -0.382

Recorded result, RRIRARPPRLPRPRPRPAIEPRP , shrunken log2 fold change: 0.396

Query RRIRVRPPRLPRPRPRPASEPRP yields shrunken log2 fold change of 0.0395

sequence RRIRLRPPRLPRPRPRPIYKPRP , shrunken log2 fold change observed: -0.489

Entry RRIRLRPPRLPRPRPRPGDCPRP ; shrunken log2 fold change = 0.0644

Looking up RRIRVRPPRLPRPRPRPQFSPRP , I see its shrunken log2 fold change listed as -0.0362

Record RRIRERPPRLPRPRPRPRVTPRP , field shrunken log2 fold change: 0.107

# sequence RRIRNRPPRLPRPRPRPQLTPRP ; its shrunken log2 fold change = -0.026

Value of shrunken log2 fold change reported for the sequence RRIRNRPPRLPRPRPRPCRKPRP is -0.0373

sequence RRIRCRPPRLPRPRPRPYNLPRP , shrunken log2 fold change observed: -0.986

Lab note: measured shrunken log2 fold change of RRIRIRPPRLPRPRPRPDYKPRP was -0.231

The measured shrunken log2 fold change associated with RRIRIRPPRLPRPRPRPEWKPRP reads 0.0442
